measurement type: melting point

Use these answered entries as a reference point.
molecule: O=C(CCc1ccccc1)Nc1ccc(Br)cc1
recorded measurement: 149 to 151 °C
--
molecule: O=c1cc(-c2cccs2)c2ccccc2[nH]1
recorded measurement: 262 to 264 °C
--
molecule: CCOC(=O)c1c(O)c2cccnc2n(Cc2ccc(OC)cc2)c1=O
recorded measurement: 153 °C
--
molecule: CC1(C)[C@@H](CN2CC[C@@H](O)C2)CC[C@@]1(C)NCC(=O)N1C[C@@H](F)C[C@H]1C#N
recorded measurement: 130 to 135 °C

Task: Need melting point of `O=[N+]([O-])c1ccc(F)c(-c2cccc(CO)c2)c1` , thanks.
Output: 113 to 114 °C

Task: Need melting point of CCOC(=O)c1nccn1C1Cc2ccc(Cl)c(Cl)c2C1=O (stereo unspecified) , thanks.
Output: 90 °C

###

melting point overview

Use these answered entries as a reference point.
compound: CC(Cc1cc(-c2ccccc2)nc2ccccc12)C(=O)N(C)C1CCCCC1 (stereo unspecified)
melting point: 160 °C
--
compound: O=C(O)c1ccc2c(c1)Sc1ccc(F)cc1C=C2
melting point: 273 to 275 °C
--
compound: CN1Cc2c(Cl)ncn2-c2cccc(Cl)c2C1=O
melting point: 211 to 212 °C
--
compound: Cc1cc(Cl)ccc1-c1c(O)c(C)c(-c2ccccn2)oc1=O
melting point: 133 to 135 °C
--
compound: NCCCCCCC(=O)Nc1cccc(C(=O)NCCC(=O)O)c1
melting point: 236 °C
--
compound: COc1ccccc1N1CCN(CC2=Cc3ccccc3CC2)CC1
melting point: 84 to 85 °C
--
compound: CCOC(=O)COc1ccc(Cn2c(-c3ccc(OC4CCCC4)cc3)c(C)c3cc(OCc4ccccc4)ccc32)cc1
melting point: 96 to 98 °C
--
compound: COC(=O)C1CCCCCCCSC[C@@H](C(=O)OC)NC1=O (stereo partly specified)
melting point: 156 to 164 °C

Task: Need melting point of CC(CC(=O)NCc1ccccc1)n1c(C(F)(F)F)nc2cc(F)c(-n3c(=O)cc(C(F)(F)F)n(C)c3=O)cc21 (stereo unspecified) , thanks.
Output: 191 to 193 °C

Task: Need melting point of CCOC(=O)C(C)Sc1nc(-c2cc(C(C)(C)C)c(O)c(C(C)(C)C)c2)c[nH]1 (stereo unspecified) , thanks.
Output: 80 to 82 °C

Task: Need melting point of CNC(=S)C1(c2cc(C)ccn2)CCCS1 (stereo unspecified) , thanks.
Output: 181 °C

###

measurement type: melting point

molecule: COc1cc(C(=O)CCc2ccccc2)c2c(c1OC)C(=O)CC2
melting point: 144 to 146 °C
//
molecule: CC/C(=C\CCC(O)(CC)CC)c1ccc(COc2ccc(CO)c(CO)c2)s1
melting point: 82 °C

Task: Need melting point of `Cn1nccc1NC(=O)N1CCN(c2nc(-c3ccccc3F)cs2)CC1` , thanks.
Output: 156 to 157 °C

Task: Need melting point of `CCOC(=O)c1nc2sc(C(C)C)cc2c(=O)o1` , thanks.
Output: 87.5 to 88.5 °C

Task: Need melting point of `COC(=O)c1ccc(CC(=O)Nc2cc(Cl)ccc2N2CCCCC2)cc1` , thanks.
Output: 156 to 158 °C

Task: Need melting point of CCOCN1C(C)=C(C(=O)OCC)C(c2cccc([N+](=O)[O-])c2)C(C(=O)OCCBr)=C1C (stereo unspecified) , thanks.
Output: 102 to 104 °C

###

melting point overview

Use these answered entries as a reference point.
sample smiles: O=C1CCc2nc(-c3ccccc3)ccc21
melting point: 177 to 178 °C
//
sample smiles: CON(C)C(=O)c1cc2c(s1)CCCC2
melting point: 36 to 37 °C
//
sample smiles: Cc1ccc(S(=O)(=O)N2CCC(S(=O)(=O)c3ccc(Cl)cc3)CC2)cc1
melting point: 263 to 264 °C

Task: Need melting point of `CC1(C)OC(=O)C(Oc2ccc(F)c(F)c2)=C1c1ccc(S(C)(=O)=O)cc1` , thanks.
Output: 93 to 95 °C

###

melting point overview

Use these answered entries as a reference point.
molecule: Cc1nc2ccccc2n1-c1ccccc1
measurement type: melting point
recorded measurement: 46 to 48 °C
--
molecule: CC(C)(C)c1ccc(CN(CCOc2cccc(N)c2N)C(=O)C(F)(F)F)cc1
measurement type: melting point
recorded measurement: 72 to 74 °C
--
molecule: CCOC(=O)c1cn(NCC=O)c2cc(-n3cccc3)c(F)cc2c1=O
measurement type: melting point
recorded measurement: 194 to 198 °C

Task: Need melting point of `COCOc1ccccc1-c1cc(-c2cccc(C(=O)OC)c2)c(C#N)c(NC(=O)c2cccs2)n1` , thanks.
Output: 159 to 160 °C

Task: Need melting point of `Nc1ccc2[nH]c(CO)cc2c1` , thanks.
Output: 159 to 160 °C

Task: Need melting point of `NCCCCn1cnc2c(N)ncnc21` , thanks.
Output: 62 to 64 °C

Task: Need melting point of C=C(C(=O)OC)C(O)c1c(C)n(C(=O)OC(C)(C)C)c2ccc(C)c(O)c12 (stereo not drawn) , thanks.
Output: 155 to 156 °C

Task: Need melting point of `Cc1ccc(S(=O)(=O)N2CCCCC2)cc1` , thanks.
Output: 148 to 150 °C

Task: Need melting point of `CN(C)C=CC(=O)c1cccnn1` , thanks.
Output: 102 to 105 °C

Task: Need melting point of COc1cc(C(C)=O)ccc1OCCCN1CCCC(C(O)(c2ccc(F)cc2)c2ccc(F)cc2)C1 (stereo not drawn) , thanks.
Output: 100 to 105 °C

Task: Need melting point of `NCc1cc2c(N)nccc2o1` , thanks.
Output: 142 to 144 °C

Task: Need melting point of `O=C(O)C=Cc1cn(-c2ccccc2)nc1-c1ccc(Cl)cc1` , thanks.
Output: 227 to 228 °C

Task: Need melting point of `Cc1ccc(C(=O)Oc2cc(O)ccn2)cc1` , thanks.
Output: 120 to 127 °C

Task: Need melting point of `CC(=O)NC1CCN(c2cccc(C)n2)CC1` , thanks.
Output: 145 to 147 °C

Task: Need melting point of `CSc1nc(=O)[nH]cc1Cl` , thanks.
Output: 254 °C

Task: Need melting point of `COC(=O)c1cc(Br)cc(I)c1` , thanks.
Output: 55 to 57 °C

Task: Need melting point of `COc1ccc2cc(C(=O)CCC(=O)c3ccccc3)ccc2c1` , thanks.
Output: 164 °C

Task: Need melting point of `CCOC(=O)C(=CNc1nnc(-c2cccnc2)s1)C(=O)OCC` , thanks.
Output: 144 to 145 °C

Task: Need melting point of `NS(=O)(=O)c1ccc(-n2nc(CNC(=O)NO)cc2-c2ccc(Cl)cc2)cc1` , thanks.
Output: 216 to 218 °C

Task: Need melting point of `CCCCc1nc(-c2nc(C)nc(C)n2)ccc1C` , thanks.
Output: 73.5 °C

Task: Need melting point of CN(C)C1CCC(c2c[nH]c3ccc(NC(=N)c4cccs4)cc23)CC1 (stereo not drawn) , thanks.
Output: 104 to 106 °C

###

melting point overview

Use these answered entries as a reference point.
compound: O=Cc1c(C#Cc2ccccc2)sc2ccccc12
recorded measurement: 105 to 106 °C

compound: CCOC1=NS(=O)(=O)C(S(C)(=O)=O)=C1N
recorded measurement: 214 to 217 °C

compound: CC(=O)NC(=O)OC[C@]1(C)S[C@@H]2[C@H](NC(=O)COc3ccccc3)C(=O)N2[C@H]1C(=O)OCc1ccc([N+](=O)[O-])cc1
recorded measurement: 83 to 85 °C

compound: CCCCCCCCCCCCCCOc1cc(OCCCOc2ccc(OCc3ccccc3)cc2)cc(C(=O)OC)c1
recorded measurement: 69 to 70 °C

compound: FC(F)(F)Sc1cc(-c2ccccc2)c(-c2ccccc2)[nH]1
recorded measurement: 58 to 59 °C

compound: Cc1c(C=CC=O)c2c(c(C)c1OCc1ccccc1)CC(C)(C)O2
recorded measurement: 108 to 109 °C

Task: Need melting point of COc1cccc(C(CNC(=O)Cc2c(Cl)cncc2Cl)c2ccccc2)c1 (centres undefined) , thanks.
Output: 142 to 143 °C

Task: Need melting point of `Cc1ccc(COC(=O)N2CCC[C@H]2C(=O)N[C@H](CO)C(C)C)cc1` , thanks.
Output: 122 to 124 °C

Task: Need melting point of `CC(=O)c1cc(C(C)(C)C)cc(Br)c1O` , thanks.
Output: 98 to 98.5 °C

Task: Need melting point of CC(C)c1nn2ccccc2c1C(O)C(C)(C)C (centres undefined) , thanks.
Output: 95 °C

Task: Need melting point of `FC(F)Oc1cc(-n2nc3c(c2Cl)CCCC3)c(Cl)cc1Cl` , thanks.
Output: 121 to 123 °C

Task: Need melting point of `O=C(O)CCCc1ccc(C(=O)C=Cc2ccccc2)cc1` , thanks.
Output: 111 to 112 °C

Task: Need melting point of `CCN(CCNC(=O)Nc1cc(Cl)ccc1CCc1cc(C(C)(C)C)c(O)c(C(C)(C)C)c1)Cc1ccccc1` , thanks.
Output: 132 to 133 °C

Task: Need melting point of `OCc1cc(OCc2ccc3ccccc3n2)no1` , thanks.
Output: 111 to 112 °C
